The reported numbers originate from ChEMBL document CHEMBL4425105.

The following molecules are shown together with reported IC50 values.
Molecular target: Mitogen-activated protein kinase 3 (Homo sapiens, UniProt P27361)
Sequence (P27361 whole entry): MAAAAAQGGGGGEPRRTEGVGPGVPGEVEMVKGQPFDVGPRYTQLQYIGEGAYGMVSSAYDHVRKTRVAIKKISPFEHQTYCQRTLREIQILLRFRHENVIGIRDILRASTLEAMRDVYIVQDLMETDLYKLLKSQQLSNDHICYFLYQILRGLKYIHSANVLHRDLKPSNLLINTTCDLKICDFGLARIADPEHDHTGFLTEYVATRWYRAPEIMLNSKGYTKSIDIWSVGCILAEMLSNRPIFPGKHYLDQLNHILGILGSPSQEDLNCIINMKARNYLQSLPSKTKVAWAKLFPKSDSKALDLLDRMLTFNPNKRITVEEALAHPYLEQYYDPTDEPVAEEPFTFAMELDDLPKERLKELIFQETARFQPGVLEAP
Give the quantity in µM, number only.

In the examples that follow, each entry is paired with its recorded IC50.
[
  {
    "structure": "Cn1cc(Nc2nccc(-c3ccn([C@H](CO)c4ccc(Cl)c(F)c4)c(=O)c3)n2)c(C(F)(F)F)n1",
    "property-label": "IC50",
    "experimental-value": 0.55
  },
  {
    "structure": "Cn1cc(Nc2nccc(-c3ccn([C@H](CO)c4ccc(Cl)c(F)c4)c(=O)c3)n2)cn1",
    "property-label": "IC50",
    "experimental-value": 0.0079
  },
  {
    "structure": "CCn1cc(Nc2nccc(-c3ccn([C@H](CO)c4ccc(Cl)c(F)c4)c(=O)c3)n2)c(C)n1",
    "property-label": "IC50",
    "experimental-value": 0.018
  }
]

Could you now consider this next molecule?
# IC50 of CCn1cc(Nc2nccc(-c3ccn([C@H](CO)c4ccc(Cl)c(F)c4)c(=O)c3)n2)cn1 = 0.005

---

Assay: Permeability from apical to basolateral side of MDCK cells
Assay type: ADME, cell-based, Canis lupus familiaris
Conditions: dog, read-out: permeability
property-label: Papp A→B (×10⁻⁶ cm/s)
Give the quantity in ×10⁻⁶ cm/s, number only.

# Papp A→B of O=c1cc(-c2ccnc(NC3CCOCC3)n2)ccn1[C@H](CO)c1ccc(Cl)c(F)c1 = 3.9

---

Experiment: in vivo
Settings: CD-1, mouse, po
Description: Oral bioavailability in CD-1 mouse
property-label: bioavailability (%)
Give the quantity in %, number only.

# bioavailability of Cc1nn(C)cc1Nc1nccc(-c2ccn([C@H](CO)c3ccc(Cl)c(F)c3)c(=O)c2)n1 = 95

---

Assay: Fraction unbound in mouse plasma
Assay type: ADME, cell-free
property-label: fraction unbound
Returns: the value as a bare number; no unit string appended.

# fraction unbound of O=c1cc(-c2ccnc(NC3CCOCC3)n2)ccn1[C@H](CO)c1ccc(Cl)c(F)c1 = 0.058

---

Target: Mitogen-activated protein kinase 3 (Homo sapiens)
The following compounds are shown together with reported pIC50 values.
Remember, pIC50 is on a log scale: it is -log10 of the molar concentration.

// returns pIC50 for Cc1c(Nc2nccc(-c3ccn([C@H](CO)c4ccc(Cl)c(F)c4)c(=O)c3)n2)cnn1C with Mitogen-activated protein kinase 3 (Homo sapiens); value = 7.21

---

Molecular target: Mitogen-activated protein kinase 1 (Homo sapiens)
Quick rule for you: IC50 under 20 nM gets yes, anything else gets no.

Completed entries (count: 2):
[
  {
    "structure": "Cc1n[nH]cc1Nc1nccc(-c2ccn([C@H](CO)c3ccc(Cl)c(F)c3)c(=O)c2)n1",
    "classification": "yes"
  },
  {
    "structure": "Cc1c(Nc2nccc(-c3ccn([C@H](CO)c4ccc(Cl)c(F)c4)c(=O)c3)n2)cnn1C",
    "classification": "no"
  }
]

Prompt line: Regarding CC(C)n1cc(Nc2nccc(-c3ccn([C@H](CO)c4ccc(Cl)c(F)c4)c(=O)c3)n2)cn1 , kindly confirm whether its IC50 is beneath 20 nM.
Response line: yes

Prompt line: Regarding CCn1cc(Nc2nccc(-c3ccn([C@H](CO)c4ccc(Cl)c(F)c4)c(=O)c3)n2)cn1 , kindly confirm whether its IC50 is beneath 20 nM.
Response line: yes

Prompt line: Regarding Cn1cc(Nc2nccc(-c3ccn([C@H](CO)c4ccc(Cl)c(F)c4)c(=O)c3)n2)c(C(F)(F)F)n1 , kindly confirm whether its IC50 is beneath 20 nM.
Response line: no

Prompt line: Regarding CCc1nn(C)cc1Nc1nccc(-c2ccn([C@H](CO)c3ccc(Cl)c(F)c3)c(=O)c2)n1 , kindly confirm whether its IC50 is beneath 20 nM.
Response line: no

Prompt line: Regarding Cc1cnn(C)c1Nc1nccc(-c2ccn([C@H](CO)c3ccc(Cl)c(F)c3)c(=O)c2)n1 , kindly confirm whether its IC50 is beneath 20 nM.
Response line: no

---

Target: Mitogen-activated protein kinase 3 (Homo sapiens, UniProt P27361)
pIC50: −log10 of the molar value.
Returns 1 (yes) if the recorded pIC50 is greater than or equal to 7, and 0 (no) otherwise.

Completed entries (count: 4):
[
  {
    "structure": "Cc1cc(Nc2nccc(-c3ccn([C@H](CO)c4ccc(Cl)c(F)c4)c(=O)c3)n2)ccn1",
    "classification": "1 (yes)"
  },
  {
    "structure": "Cc1nn(C)cc1Nc1nccc(-c2ccn([C@H](CO)c3ccc(Cl)c(F)c3)c(=O)c2)n1",
    "classification": "1 (yes)"
  },
  {
    "structure": "O=c1cc(-c2ccnc(Nc3cc[nH]n3)n2)ccn1[C@H](CO)c1ccc(Cl)c(F)c1",
    "classification": "0 (no)"
  },
  {
    "structure": "CCn1nccc1Nc1nccc(-c2ccn([C@H](CO)c3ccc(Cl)c(F)c3)c(=O)c2)n1",
    "classification": "1 (yes)"
  }
]

Prompt line: Is pIC50 for Cc1n[nH]c(C)c1Nc1nccc(-c2ccn([C@H](CO)c3ccc(Cl)c(F)c3)c(=O)c2)n1 at or above 7?
Response line: 0 (no)

Prompt line: Is pIC50 for Cc1cc(Nc2nccc(-c3ccn([C@H](CO)c4ccc(Cl)c(F)c4)c(=O)c3)n2)n(C)n1 at or above 7?
Response line: 1 (yes)

Prompt line: Is pIC50 for CCc1nn(C)cc1Nc1nccc(-c2ccn([C@H](CO)c3ccc(Cl)c(F)c3)c(=O)c2)n1 at or above 7?
Response line: 1 (yes)

Prompt line: Is pIC50 for CC(C)n1cc(Nc2nccc(-c3ccn([C@H](CO)c4ccc(Cl)c(F)c4)c(=O)c3)n2)cn1 at or above 7?
Response line: 1 (yes)

---

Target: Mitogen-activated protein kinase 1 (Homo sapiens, UniProt P28482)
Sequence (P28482 whole entry): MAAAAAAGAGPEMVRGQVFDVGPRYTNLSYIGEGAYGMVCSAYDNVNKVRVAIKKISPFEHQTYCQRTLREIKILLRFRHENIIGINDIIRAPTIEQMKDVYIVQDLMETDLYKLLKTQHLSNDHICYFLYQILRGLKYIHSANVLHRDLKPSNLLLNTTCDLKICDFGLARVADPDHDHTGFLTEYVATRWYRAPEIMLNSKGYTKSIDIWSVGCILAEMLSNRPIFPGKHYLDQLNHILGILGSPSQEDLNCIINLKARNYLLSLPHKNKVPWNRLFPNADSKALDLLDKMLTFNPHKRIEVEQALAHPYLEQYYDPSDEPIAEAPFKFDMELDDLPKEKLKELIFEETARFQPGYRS
Categorize each record by its IC50 using bottom range: < 20 nM; center range: ≥ 20 nM and < 90 nM; top range: ≥ 90 nM

[
  {
    "structure": "CCc1cc(Nc2nccc(-c3ccn([C@H](CO)c4ccc(Cl)c(F)c4)c(=O)c3)n2)n(C)n1",
    "classification": "bottom range"
  },
  {
    "structure": "CCn1nccc1Nc1nccc(-c2ccn([C@H](CO)c3ccc(Cl)c(F)c3)c(=O)c2)n1",
    "classification": "bottom range"
  },
  {
    "structure": "O=c1cc(-c2ccnc(Nc3cc[nH]n3)n2)ccn1[C@H](CO)c1ccc(Cl)c(F)c1",
    "classification": "top range"
  },
  {
    "structure": "Cn1cc(Nc2nccc(-c3ccn([C@H](CO)c4ccc(Cl)c(F)c4)c(=O)c3)n2)cn1",
    "classification": "bottom range"
  },
  {
    "structure": "Cn1nc(C(F)(F)F)cc1Nc1nccc(-c2ccn([C@H](CO)c3ccc(Cl)c(F)c3)c(=O)c2)n1",
    "classification": "center range"
  }
]

Prompt line: Sort Cc1n[nH]c(C)c1Nc1nccc(-c2ccn([C@H](CO)c3ccc(Cl)c(F)c3)c(=O)c2)n1 into one of the categories.
Response line: top range

Prompt line: Sort Cc1cc(Nc2nccc(-c3ccn([C@H](CO)c4ccc(Cl)c(F)c4)c(=O)c3)n2)ccn1 into one of the categories.
Response line: bottom range

Prompt line: Sort Cn1ccc(Nc2nccc(-c3ccn([C@H](CO)c4ccc(Cl)c(F)c4)c(=O)c3)n2)n1 into one of the categories.
Response line: center range

---

What follows is a collection of pIC50 values obtained with Mitogen-activated protein kinase 3 (Homo sapiens, UniProt P27361).
Remember, pIC50 is on a log scale: it is -log10 of the molar concentration.

In the examples that follow, each entry is paired with its recorded pIC50.
[
  {
    "structure": "CCn1nc(C)cc1Nc1nccc(-c2ccn([C@H](CO)c3ccc(Cl)c(F)c3)c(=O)c2)n1",
    "pIC50": 6.82
  },
  {
    "structure": "Cn1nc(C(F)(F)F)cc1Nc1nccc(-c2ccn([C@H](CO)c3ccc(Cl)c(F)c3)c(=O)c2)n1",
    "pIC50": 7.13
  },
  {
    "structure": "Cn1ccc(Nc2nccc(-c3ccn([C@H](CO)c4ccc(Cl)c(F)c4)c(=O)c3)n2)n1",
    "pIC50": 7.07
  },
  {
    "structure": "Cc1cnn(C)c1Nc1nccc(-c2ccn([C@H](CO)c3ccc(Cl)c(F)c3)c(=O)c2)n1",
    "pIC50": 5.97
  },
  {
    "structure": "Cc1n[nH]cc1Nc1nccc(-c2ccn([C@H](CO)c3ccc(Cl)c(F)c3)c(=O)c2)n1",
    "pIC50": 8.42
  }
]

Could you now consider this next compound?
# pIC50 of CCc1cc(Nc2nccc(-c3ccn([C@H](CO)c4ccc(Cl)c(F)c4)c(=O)c3)n2)n(C)n1 = 7.57
